Numbers sourced from ChEMBL document CHEMBL4513216.

Test system: Plasmodium berghei
TEST: Screen against P. berghei liver stage (PbLuc), transformed with Luciferase, at 10uM
Format: functional, HepG2
COND: tested at 10 uM
The whole screen tested about 69,000 compounds, of which about 8,600 (12%) showed an effect of 50% or more. The full list was thinned out, with strong results kept by preference.
MEASUREMENT KIND: INHIBITION (%)
Answers are plain numbers, in %.

* CNc1snc(C)c1C(=O)N1CCCC(n2cccn2)C1 (stereo unspecified) | 46.2
* c1cnn(-c2ccc(CN3CCCC(Cn4cncn4)C3)cc2)c1 (stereo unspecified) | 13.3
* CNc1snc(C)c1C(=O)N1CCCC(n2nc(C)cc2C)C1 (stereo unspecified) | 32.8
* Cc1cc(N2CCCC2c2cc(Nc3cnccn3)nc(C)n2)ncn1 (stereo unspecified) | -50.2
* CC(C)CNC(=O)[C@H]1CCS(=O)(=O)[C@@H]2CN(Cc3ccc(F)cc3)C[C@H]12 | -0.371

Item under review: O=C(Cn1cc(I)cn1)Nc1cccnc1 . Reported INHIBITION?
4.74

----------
System: Plasmodium berghei
TEST: Screen against P. berghei liver stage (PbLuc), transformed with Luciferase, at 10uM
Assay type: functional, HepG2
COND: tested at 10 uM
In all, about 69,000 compounds went through this assay and about 8,600 (12%) showed an effect of 50% or more. For the sample, strong results were picked, then their nearest neighbours and some compounds at random.
Would you kindly list INHIBITION for each of these compounds?
One number for each entry, in %.

# example entries with known answers
- O=c1c2c[nH]c(N3CCOCC3)nc-2cn1C1CCS(=O)(=O)C1 (stereo unspecified): 24
- CN(CCOc1ccc(Cl)cc1)Cc1ccc(S(=O)(=O)N(C)C)o1: 51
- COCC(C)(O)CNC(=O)c1cc(-c2cc(OC)ccc2OC)nn1C (stereo unspecified): -43.5
- COc1ccccc1CN(CC1CCCO1)C(=O)c1cc(C)n[nH]1 (stereo unspecified): -11.3
- CCS(=O)(=O)N1CCOC2(CCCN(c3ccccn3)C2)C1 (stereo unspecified): 50.7

State the recorded INHIBITION for every item in the following list.
1. CC1CCC(n2cc3nc(N)[nH]cc-3c2=O)CC1 (stereo unspecified)
2. CC1(C)CC(n2cc3nc(N)[nH]cc-3c2=O)CC(C)(C)N1
3. Cc1ccc(OCCN(C)Cc2ccc(S(=O)(=O)N(C)C)o2)cc1
4. c1ccc(N2CCOC3(CCCN(c4ncccn4)C3)C2)nc1 (stereo unspecified)

-8.9
3.47
47.7
76.5

Please state, for each entry, its recorded INHIBITION.
1. CC1(C)CC(n2cc3nc(N4CCCC4)[nH]cc-3c2=O)CC(C)(C)N1
2. Cc1ccc(CN(C)C(=O)C(C)n2ccnc2C(C)C)o1 (stereo unspecified)

[64.8, 33]

----------
Tested on: Plasmodium berghei
TEST: Screen against P. berghei liver stage (PbLuc), transformed with Luciferase, at 10uM
Format: functional, HepG2
COND: tested at 10 uM
The whole screen tested about 69,000 compounds, of which about 8,600 (12%) showed an effect of 50% or more. Only a selection was taken, and strong results are over-represented in it overall.
Label Satisfied when INHIBITION is at or above 20%; otherwise label Not satisfied.

* Cn1cc(-c2nnn3c2COC(CNC(=O)c2cccs2)C3)cn1 (stereo not given) | Not satisfied

Test whether the compound COC(C)c1cccc(NC(=O)N(CCC#N)Cc2ccccn2)c1 (stereo not given) records INHIBITION of 20% or higher.
Satisfied

Say whether CC(C)c1ocnc1C(=O)Nc1cccc(Cn2ccccc2=O)c1 shows INHIBITION of 20% or more.
Satisfied
